Source of measurements: the supplement of paper PMC10567573

B1: KRT13 (parent)
chain: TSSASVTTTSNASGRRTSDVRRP

variants of: B1; test: protein stability index of a GFP-peptide fusion (GPS, HEK-293T) (PSI 1-6); higher = more stable; conditions: c terminus: native;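 also: lentivirally expressed fusions sorted by FACS into six bins by GFP to DsRed ratio, PSI derived from sequencing read proportions per bin multiplied by bin number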
Let's look at some variants and their measured protein stability index.
Answer with a bare number; do not write a unit.

Below: 8 variants and their reported protein stability index.
TSSASVTYTSNASGRRTSDVRRP :: 3.44
TSSASVTTTSNASGRRTSDPRRP :: 2.31
TSSAQVTTTSNASGRRTSDVRRP :: 2.59
TSLASVTTTSNASGRRTSDVRRP :: 1.99
TSSASCTTTSNASGRRTSDVRRP :: 4.46
TSSASVTGTSNASGRRTSDVRRP :: 2.26
TSSASVTTTSNASGNRTSDVRRP :: 2.6
TSSASVKTTSNASGRRTSDVRRP :: 2.19

The reported protein stability index of the variant `ISSASVTTTSNASGRRTSDVRRP` was 2.25

The reported protein stability index of the variant `TSSASVTTTSNASGRSTSDVRRP` was 2.11

The reported protein stability index of the variant `TSSASVTTTSNHSGRRTSDVRRP` was 3.71
